Entry source: PubChem BioAssay (EPA / NIEHS)

test: ATG_NF_kB_CIS: Attagene CIS-FACTORIAL HepG2 Assay for human Nuclear Factor Kappa B (NF-kB) (AID 2282991)
condition.description: HepG2 Attagene cis-factorial NF-kB reporter mRNA; actives raise or lower the signal
Calls of active or inactive are those of the source. The calls were made as follows: active = hit-call score of the fitted dose curve at least 0.9, where 1 is the maximum; inactive = score below 0.9.
In this exercise, the only acceptable responses are yes (1) (active), no (0) (inactive)

* CCCSP(=S)(OCC)Oc1ccc(Cl)cc1Cl (configuration not stated) | no (0)
* CC(C)O.CC(C)O.OCCN(CCO)CCO.OCCN(CCO)CCO.[Ti] | no (0)
* CCOC(=O)CC(=O)CCl | yes (1)

[ask] I'd appreciate the recorded outcome for "CCCCN(CCCCO)N=O" from this test.
[reply] no (0)

[ask] I'd appreciate the recorded outcome for "Nc1nc(=S)[nH][nH]1" from this test.
[reply] no (0)

[ask] I'd appreciate the recorded outcome for "O=C(Nc1ccc(Br)cc1)c1cc(Br)cc(Br)c1O" from this test.
[reply] no (0)

[ask] I'd appreciate the recorded outcome for "C=CC(=O)[O][Sn]([CH2]CCC)([CH2]CCC)[CH2]CCC" from this test.
[reply] no (0)

###

target.entity: Estrogen receptor (Homo sapiens)
test: OT_ERa_GFPERaERE_0480: Odyssey Thera (OT) 8-hour HeLa Transcription Induction Assay for Estrogen Receptor (AID 2283381)
Activity calls are given as the source filed them. Rule for the calls: active = hit-call score of the fitted dose curve at least 0.9, where 1 is the maximum; inactive = score below 0.9.
In this exercise, the only acceptable responses are active, inactive

Use the examples below as a reference point.
* CC(C)N(C(=O)CCl)c1ccccc1 | inactive
* CCN(CCO)CCO | inactive
* Oc1c(Br)cc(Br)cc1Br | inactive
* CCCCCCCCCCCCN(C)C | inactive
* O=C(NC(=O)c1c(F)cccc1F)Nc1cc(Cl)c(OC(F)(F)C(F)C(F)(F)F)cc1Cl (centres undefined) | inactive
* CCOCn1c(-c2ccc(Cl)cc2)c(C#N)c(Br)c1C(F)(F)F | inactive

[ask] I'd appreciate the recorded outcome for Cc1cc(Cl)ccc1OC(C)C(=O)O (centres undefined) from this test.
[reply] inactive

[ask] I'd appreciate the recorded outcome for "CNC(=O)O/N=C/C(C)(C)S(C)(=O)=O" from this test.
[reply] inactive

[ask] I'd appreciate the recorded outcome for "C=CCN=C=S" from this test.
[reply] inactive

###

test: TOX21_p53_BLA_p2_viability: Viability Assessment in the Tox21 HCT-116 p53 Agonism Beta-lactamase Assay, Phase 2 (AID 2283591);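 also: compound exposure lasted 16 h at 37 °C; actives lower the ATP signal meaning cytotoxicity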
Records with an inconclusive call do not appear. Active and inactive are the calls of the source. Rule for the calls: active = hit-call score of the fitted dose curve at least 0.9, where 1 is the maximum; inconclusive = response in the unintended direction; inactive = score below 0.9.
In this exercise, the only acceptable responses are yes (active), no (inactive)

- c1ccc2c(c1)Oc1ccccc1O2: no

[ask] I'd appreciate the recorded outcome for "COC(=O)c1cc(Oc2ccc(Cl)cc2Cl)ccc1[N+](=O)[O-]" from this test.
[reply] no

###

target.entity: Paired box protein Pax-6 (Homo sapiens)
test: ATG_Pax6_CIS: Attagene CIS-FACTORIAL HepG2 Assay for human Paired Box 6 (PAX6) (AID 2282956)
condition.description: HepG2 CIS-FACTORIAL PAX6 reporter transcription, RNA readout; actives raise or lower the signal
Active and inactive are the calls of the source. The calls were made as follows: active = hit-call score of the fitted dose curve at least 0.9, where 1 is the maximum; inactive = score below 0.9.
In this exercise, the only acceptable responses are 1.0 (active), 0.0 (inactive)

Use the examples below as a reference point.
• CCCCCCCCCCCCOS(=O)(=O)O = 0.0
• C=C(C)C(=O)OCC(CC)CCCC (centres undefined) = 0.0
• Brc1c(Br)c(Br)c(Oc2c(Br)c(Br)c(Br)c(Br)c2Br)c(Br)c1Br = 0.0

[ask] I'd appreciate the recorded outcome for CCOC(=O)C(SP(=S)(OC)OC)c1ccccc1 (centres undefined) from this test.
[reply] 0.0

[ask] I'd appreciate the recorded outcome for "Nc1c(Oc2ccccc2)cc(O)c2c1C(=O)c1ccccc1C2=O" from this test.
[reply] 0.0

[ask] I'd appreciate the recorded outcome for "CCOP(=S)(OCC)O/N=C(\C#N)c1ccccc1" from this test.
[reply] 0.0

[ask] I'd appreciate the recorded outcome for C=CC(Cl)CCl (centres undefined) from this test.
[reply] 0.0

[ask] I'd appreciate the recorded outcome for "Nc1cccnc1" from this test.
[reply] 0.0

[ask] I'd appreciate the recorded outcome for "C[C@@H]1O[C@@H](O[C@H]2C[C@@H](O)[C@]3(CO)[C@H]4[C@H](O)C[C@]5(C)[C@@H](C6=CC(=O)OC6)CC[C@]5(O)[C@@H]4CC[C@]3(O)C2)[C@H](O)[C@H](O)[C@H]1O" from this test.
[reply] 0.0

###

target.entity: Cellular tumor antigen p53 (Homo sapiens)
test: TOX21_p53_BLA_p3_ratio: Tox21 HCT-116 p53 Agonism Beta-lactamase Assay, Ratio, Phase 3 (AID 2283596)
Records with an inconclusive call do not appear. Activity calls are given as the source filed them. The calls were made as follows: active = hit-call score of the fitted dose curve at least 0.9, where 1 is the maximum; inconclusive = response in the unintended direction; inactive = score below 0.9.
In this exercise, the only acceptable responses are true (1) (active), false (0) (inactive)

Use the examples below as a reference point.
* Cc1cccc(N=Nc2ccc(N(C)C)cc2)c1 | false (0)
* OC(c1ccc(Cl)cc1)(c1ccc(Cl)cc1)c1cccnc1 | false (0)
* CCCCCCCCCCCCCl | false (0)
* CCOP(=O)(OCC)OC(=CCl)c1ccc(Cl)cc1Cl | false (0)
* O=NN1CCOCC1 | false (0)

[ask] I'd appreciate the recorded outcome for "C=CCc1ccccc1O" from this test.
[reply] false (0)

[ask] I'd appreciate the recorded outcome for "COC(=O)c1cc(Oc2ccc(Cl)cc2Cl)ccc1[N+](=O)[O-]" from this test.
[reply] false (0)

[ask] I'd appreciate the recorded outcome for O=C1c2ccccc2C(=O)C1C(=O)C(c1ccccc1)c1ccc(Cl)cc1 (centres undefined) from this test.
[reply] false (0)

[ask] I'd appreciate the recorded outcome for "c1ccc(-c2cccc(-c3ccccc3)c2)cc1" from this test.
[reply] false (0)

[ask] I'd appreciate the recorded outcome for "O=[N+]([O-])c1cccc2ccccc12" from this test.
[reply] false (0)

[ask] I'd appreciate the recorded outcome for "CCCCOC(C)=O" from this test.
[reply] false (0)

[ask] I'd appreciate the recorded outcome for "O=C(Cl)OCCOCCOC(=O)Cl" from this test.
[reply] false (0)

[ask] I'd appreciate the recorded outcome for "COC(=O)Nc1cccc(OC(=O)Nc2cccc(C)c2)c1" from this test.
[reply] false (0)

[ask] I'd appreciate the recorded outcome for "COP(=S)(OC)Oc1cc(Cl)c(I)cc1Cl" from this test.
[reply] true (1)

###

test: APR_HepG2_StressKinase_72hr: Apredica 72-hour HepG2 Assay for Stress Kinase (AID 2282921)
condition.description: HepG2 stress kinase (phospho-c-Jun) imaging, actives raise or lower the signal
Activity calls are given as the source filed them. How the source made its calls: active means hit-call score of the fitted dose curve at least 0.9, where 1 is the maximum; inactive means score below 0.9.
quantity.name: AC50

- COc1ccccc1N: inactive
- Cc1cc(C)cc(C)c1: inactive
- Oc1cc(Cl)c(Cl)cc1Cl: 51.8 µM (active)
- Clc1cccc(Cl)c1Cl: inactive
- Oc1c(Cl)cc(Cl)cc1Cl: inactive
- CCCCCCCCCCCCc1cccc(S(=O)(=O)O)c1: inactive

[ask] Which AC50 value is on record for "O=C(N[C@H]1CN2CCC1CC2)c1ccc2c(c1)OCCO2" ?
[reply] inactive

[ask] Which AC50 value is on record for "OCCN(CCO)CCO" ?
[reply] inactive

[ask] Which AC50 value is on record for "N#Cc1cccnc1" ?
[reply] inactive

[ask] Which AC50 value is on record for "CN(C)C(=S)S" ?
[reply] 1.16 µM (active)

[ask] Which AC50 value is on record for "CC(C)O.CC(C)O.OCCN(CCO)CCO.OCCN(CCO)CCO.[Ti]" ?
[reply] inactive

###

target.entity: Nuclear receptor subfamily 1 group I member 2 (Homo sapiens) (UniProt O75469)
Sequence (O75469 whole entry, looked up): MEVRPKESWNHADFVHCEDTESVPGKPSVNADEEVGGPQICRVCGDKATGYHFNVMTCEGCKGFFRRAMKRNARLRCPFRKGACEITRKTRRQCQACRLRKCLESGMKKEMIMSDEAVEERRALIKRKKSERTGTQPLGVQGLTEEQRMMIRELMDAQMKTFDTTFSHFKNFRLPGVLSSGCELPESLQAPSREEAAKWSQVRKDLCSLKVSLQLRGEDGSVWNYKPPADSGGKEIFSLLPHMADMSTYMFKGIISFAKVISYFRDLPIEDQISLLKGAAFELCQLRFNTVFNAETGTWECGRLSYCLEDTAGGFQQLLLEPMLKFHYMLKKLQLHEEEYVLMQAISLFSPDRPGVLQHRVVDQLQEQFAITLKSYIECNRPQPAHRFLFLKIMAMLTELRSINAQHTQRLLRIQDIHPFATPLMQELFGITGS
test: ATG_PXR_TRANS: Attagene TRANS-FACTORIAL HepG2 Assay for human Pregnane X Receptor (PXR) (AID 2283008)
Records with an inconclusive call do not appear. Active and inactive are the calls of the source. Rule for the calls: active = hit-call score of the fitted dose curve at least 0.9, where 1 is the maximum; inconclusive = response in the unintended direction; inactive = score below 0.9.
In this exercise, the only acceptable responses are active, inactive

* CCOP(=O)(OCC)OC(=CCl)c1ccc(Cl)cc1Cl | active
* N#Cc1ccccc1N | inactive
* CCCCC(CC)C(=O)Cl (stereo not drawn) | inactive
* O=C/C(Cl)=C(/Cl)C(=O)O | inactive
* O=C(Cl)OCCOCCOC(=O)Cl | inactive
* ClCc1ccccc1CCl | inactive
* CCC[CH2][Sn]([CH2]CCC)([CH2]CCC)[CH2]CCC | active
* CCOC(=O)c1ccccc1S(=O)(=O)NC(=O)Nc1nc(Cl)cc(OC)n1 | inactive

[ask] I'd appreciate the recorded outcome for "Cc1ccccc1OP(=O)(Oc1ccccc1)Oc1ccccc1" from this test.
[reply] active

[ask] I'd appreciate the recorded outcome for "CC(=O)C(F)(F)C(F)(F)F" from this test.
[reply] inactive

###

test: BSK_LPS_PGE2: BioMAP Diversity Plus: LPS Assay for Prostaglandin E2 (PGE2) Biomarker Activity (AID 2283082)
condition.description: primary human HUVEC with PBMC; actives raise or lower the signal
Description: BSK_LPS is a cell-based, multiplexed-readout assay that uses umbilical vein endothelium and peripheral blood mononuclear cells, a human vascular primary cell co-culture, with measurements taken at 24 hours after chemical dosing in a 96-well plate.BSK_LPS_PGE2 is an assay component measured in the BSK_LPS assay. It measures PGE2 antibody related to regulation of gene expression using ELISA technology.Data from the assay component BSK_LPS_PGE2 was analyzed into 1 assay endpoint. […]
Calls of active or inactive are those of the source. How the source made its calls: active means hit-call score of the fitted dose curve at least 0.9, where 1 is the maximum; inactive means score below 0.9.
In this exercise, the only acceptable responses are true (1) for active, false (0) for inactive

• O=S(=O)(c1ccc(Cl)cc1)c1cc(Cl)c(Cl)cc1Cl = false (0)
• O=[N+]([O-])c1ccc(Nc2ccccc2)cc1 = false (0)
• CC(C)(C)c1ccccc1O = false (0)

[ask] I'd appreciate the recorded outcome for "Oc1cccc(-c2ccccc2)c1" from this test.
[reply] true (1)

[ask] I'd appreciate the recorded outcome for "Nc1ccc(N)cc1" from this test.
[reply] false (0)

[ask] I'd appreciate the recorded outcome for "O=C(Cc1ccccc1)OCCc1ccccc1" from this test.
[reply] false (0)

[ask] I'd appreciate the recorded outcome for "CCOP(=O)(OCC)OC(=CCl)c1ccc(Cl)cc1Cl" from this test.
[reply] false (0)

[ask] I'd appreciate the recorded outcome for "Cc1ccc2nc3sc(=O)sc3nc2c1" from this test.
[reply] true (1)

[ask] I'd appreciate the recorded outcome for CCOC(=O)C(SP(=S)(OC)OC)c1ccccc1 (centres undefined) from this test.
[reply] false (0)

[ask] I'd appreciate the recorded outcome for "Cc1cccc(OP(=O)(Oc2cccc(C)c2)Oc2cccc(C)c2)c1" from this test.
[reply] false (0)
